Cited source for all entries: paper PMC4585259

# Target Or Test System: rNav1.2 sodium channels (Rattus norvegicus, UniProt P04775)
# Construct: host or cells: HEK-293
# Sequence (P04775 whole entry): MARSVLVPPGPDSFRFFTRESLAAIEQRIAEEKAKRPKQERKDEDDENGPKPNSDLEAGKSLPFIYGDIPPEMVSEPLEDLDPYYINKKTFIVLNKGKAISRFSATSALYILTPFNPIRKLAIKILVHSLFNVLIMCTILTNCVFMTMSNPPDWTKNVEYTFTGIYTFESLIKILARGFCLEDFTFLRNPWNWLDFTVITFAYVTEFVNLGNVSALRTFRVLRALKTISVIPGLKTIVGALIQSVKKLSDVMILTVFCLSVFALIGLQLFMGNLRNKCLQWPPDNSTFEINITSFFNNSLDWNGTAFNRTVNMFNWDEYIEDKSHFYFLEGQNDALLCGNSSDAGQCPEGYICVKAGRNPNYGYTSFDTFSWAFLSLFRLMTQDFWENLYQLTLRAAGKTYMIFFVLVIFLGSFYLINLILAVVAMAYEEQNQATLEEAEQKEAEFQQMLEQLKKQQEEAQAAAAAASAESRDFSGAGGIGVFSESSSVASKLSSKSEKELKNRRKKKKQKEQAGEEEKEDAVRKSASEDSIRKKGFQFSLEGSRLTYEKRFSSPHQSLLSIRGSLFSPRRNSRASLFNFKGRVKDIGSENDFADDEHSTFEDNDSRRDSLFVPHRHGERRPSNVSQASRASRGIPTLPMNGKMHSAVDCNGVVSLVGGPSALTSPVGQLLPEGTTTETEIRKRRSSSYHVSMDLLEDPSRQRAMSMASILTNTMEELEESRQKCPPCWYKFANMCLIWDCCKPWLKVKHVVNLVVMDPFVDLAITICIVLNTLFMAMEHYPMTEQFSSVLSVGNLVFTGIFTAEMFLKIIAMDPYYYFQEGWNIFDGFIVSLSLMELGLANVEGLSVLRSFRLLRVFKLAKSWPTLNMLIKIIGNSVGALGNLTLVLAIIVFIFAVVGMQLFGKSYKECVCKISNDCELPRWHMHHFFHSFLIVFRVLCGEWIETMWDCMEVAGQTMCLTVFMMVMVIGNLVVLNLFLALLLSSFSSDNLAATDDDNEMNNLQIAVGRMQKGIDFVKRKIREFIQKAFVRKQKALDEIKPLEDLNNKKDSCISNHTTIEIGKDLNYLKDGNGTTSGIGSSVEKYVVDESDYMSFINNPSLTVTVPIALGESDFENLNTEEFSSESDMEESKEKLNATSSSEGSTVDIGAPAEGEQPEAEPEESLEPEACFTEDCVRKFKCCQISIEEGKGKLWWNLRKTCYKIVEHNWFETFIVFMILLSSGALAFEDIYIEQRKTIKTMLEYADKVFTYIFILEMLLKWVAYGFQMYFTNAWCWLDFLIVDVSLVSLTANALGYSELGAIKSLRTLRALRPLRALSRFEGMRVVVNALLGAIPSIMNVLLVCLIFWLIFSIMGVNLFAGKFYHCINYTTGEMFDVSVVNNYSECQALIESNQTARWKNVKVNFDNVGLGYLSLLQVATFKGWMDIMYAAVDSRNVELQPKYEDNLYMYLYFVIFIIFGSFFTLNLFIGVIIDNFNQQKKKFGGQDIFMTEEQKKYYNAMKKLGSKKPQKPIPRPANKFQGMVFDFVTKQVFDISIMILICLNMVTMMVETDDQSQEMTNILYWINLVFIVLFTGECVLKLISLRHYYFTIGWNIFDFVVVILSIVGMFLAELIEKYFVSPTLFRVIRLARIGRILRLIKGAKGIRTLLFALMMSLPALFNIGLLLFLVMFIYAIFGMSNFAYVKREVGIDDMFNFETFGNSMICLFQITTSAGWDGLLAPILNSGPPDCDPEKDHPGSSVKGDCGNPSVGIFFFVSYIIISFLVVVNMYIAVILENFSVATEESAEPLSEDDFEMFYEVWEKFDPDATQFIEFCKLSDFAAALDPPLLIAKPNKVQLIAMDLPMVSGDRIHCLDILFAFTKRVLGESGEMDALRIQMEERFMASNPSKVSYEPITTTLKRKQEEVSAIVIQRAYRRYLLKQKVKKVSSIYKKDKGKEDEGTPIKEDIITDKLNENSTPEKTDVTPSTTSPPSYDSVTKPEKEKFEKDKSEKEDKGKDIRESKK
# Measurement Description: QPatch automated patch clamp, inhibition of sodium currents evoked by 5 Hz trains at three extracellular pH values
# Assay type: cell-based
# Details: pH 7.3; concentration (lidocaine 300 μM, memantine 30 μM)
Parameter τonset: see the listing below.

INSERT INTO measurements (molecule, recorded_measurement) VALUES
  ('CCN(CC)CC(=O)Nc1c(C)cccc1C', '5.14 s'),
  ('CN(C)CCCN1c2ccccc2Sc2ccc(Cl)cc21', '22.20 s'),
  ('CN1CCN2c3ncccc3Cc3ccccc3C2C1 (stereo not shown)', '8.80 s');

## Task Dear colleague, I am looking for the recorded τonset of the following molecule: `Nc1nnc(-c2cccc(Cl)c2Cl)c(N)n1`
## Result 13.00 s

## Task Dear colleague, I am looking for the recorded τonset of the following molecule: `Cc1nc2sccn2c(=O)c1CCN1CCC(=C(c2ccc(F)cc2)c2ccc(F)cc2)CC1`
## Result 18.00 s

## Task Dear colleague, I am looking for the recorded τonset of the following molecule: CNCCC(Oc1ccccc1OC)c1ccccc1 (stereo not shown)
## Result 23.99 s

---

# Target Or Test System: rNav1.2 sodium channels (Rattus norvegicus, UniProt P04775)
# Construct: host or cells: HEK-293
# Measurement Description: QPatch automated patch clamp, inhibition of sodium currents evoked by 5 Hz trains at three extracellular pH values
# Assay type: cell-based
# Details: pH 8.6; single concentration (lidocaine 300 μM, memantine 30 μM); geometric mean of 5; read-out: apparent affinity
Parameter pKd: see the listing below.
Note on pKd: it is the negative log10 of concentration, concentration in mol/L.

INSERT INTO measurements (compound, recorded_measurement) VALUES
  ('CN1CCN2c3ncccc3Cc3ccccc3C2C1 (stereo not drawn) [mirtazapine]', 4.42),
  ('Fc1ccc([C@@H]2CCNC[C@H]2COc2ccc3c(c2)OCO3)cc1 [paroxetine]', 5.07);

For the next question, use this compound.
## Task Dear colleague, I am looking for the recorded pKd of the following compound: CN(C)CCCN1c2ccccc2Sc2ccc(Cl)cc21 [chlorpromazine]
## Result 4.76

---

Parameter τonset: see the listing below.
# Target Or Test System: rNav1.2 sodium channels (Rattus norvegicus, UniProt P04775)
# Construct: host or cells: HEK-293
# Measurement Description: QPatch automated patch clamp, inhibition of sodium currents evoked by 5 Hz trains at three extracellular pH values
# Format: cell-based
# Details: pH 7.3; concentration (lidocaine 300 μM, memantine 30 μM)
Give just the number in s; leave the unit off.

Example entries begin here.
INSERT INTO results (molecule, target_or_test_system, recorded_measurement) VALUES
  ('C[Si](C)(Cc1ccc(F)cc1)CN1CCCCC1', 'rNav1.2 sodium channels (Rattus norvegicus, UniProt P04775)', 10.00),
  ('CNCCCN1c2ccccc2CCc2ccccc21', 'rNav1.2 sodium channels (Rattus norvegicus, UniProt P04775)', 44.40),
  ('CN(C)CCC=C1c2ccccc2CCc2ccccc21', 'rNav1.2 sodium channels (Rattus norvegicus, UniProt P04775)', 15.10);

## Task Dear colleague, I am looking for the recorded τonset of the following molecule: Cc1ccc(C(=O)C(C)CN2CCCCC2)cc1 (stereo not shown)
## Result 7.20
